Target: T1, colFD-NL
T1 chain: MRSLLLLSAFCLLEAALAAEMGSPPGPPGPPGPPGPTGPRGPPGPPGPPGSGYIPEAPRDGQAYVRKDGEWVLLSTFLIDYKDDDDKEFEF
Assay: BRET
Settings: chain shown with the change; in the ER of HEK293 cells; n = 4; parent: est. 100; read off a plot
Values of percent of parent strictly less than 80% map to yes, and values of at least 80% map to no.

Check out these entries, answers already filled in.
* Hsp47-HT, P19324 I352E (protein) AEVKKPLEAAAPGTAEKLSSKATTLAERSTGLAFSLYQAMAKDQAVENILLSPLVVASSLGLVSLGGKATTASQAKAVLSAEKLRDEEVHTGLGELLRSLSNSTARNVTWKLGSRLYGPSSVSFADDFVRSSKQHYNCEHSKINFRDKRSALQSINEWASQTTDGKLPEVTKDVERTDGALLVNAMFFKPHWDEKFHHKMVDNRGFMVTRSYTVGVTMMHRTGLYNYYDDEKEKLQMVEMPLAHKLSSLIILMPHHVEPLERLEKLLTKEQLKAWMGKMQKKAVAISLPKGVVEVTHDLQKHLAGLGLTEAIDKNKADLSRMSGKKDLYLASVFHATAFEWDTEGNPFDQDEYGREELRSPKLFYADHPFIFLVRDNQSGSLLFIGRLVRPKGDKMRDEL | no
* Hsp47-HT, P19324 I352A (protein) AEVKKPLEAAAPGTAEKLSSKATTLAERSTGLAFSLYQAMAKDQAVENILLSPLVVASSLGLVSLGGKATTASQAKAVLSAEKLRDEEVHTGLGELLRSLSNSTARNVTWKLGSRLYGPSSVSFADDFVRSSKQHYNCEHSKINFRDKRSALQSINEWASQTTDGKLPEVTKDVERTDGALLVNAMFFKPHWDEKFHHKMVDNRGFMVTRSYTVGVTMMHRTGLYNYYDDEKEKLQMVEMPLAHKLSSLIILMPHHVEPLERLEKLLTKEQLKAWMGKMQKKAVAISLPKGVVEVTHDLQKHLAGLGLTEAIDKNKADLSRMSGKKDLYLASVFHATAFEWDTEGNPFDQDAYGREELRSPKLFYADHPFIFLVRDNQSGSLLFIGRLVRPKGDKMRDEL | no
* Hsp47-HT, P19324 Y353A (protein) AEVKKPLEAAAPGTAEKLSSKATTLAERSTGLAFSLYQAMAKDQAVENILLSPLVVASSLGLVSLGGKATTASQAKAVLSAEKLRDEEVHTGLGELLRSLSNSTARNVTWKLGSRLYGPSSVSFADDFVRSSKQHYNCEHSKINFRDKRSALQSINEWASQTTDGKLPEVTKDVERTDGALLVNAMFFKPHWDEKFHHKMVDNRGFMVTRSYTVGVTMMHRTGLYNYYDDEKEKLQMVEMPLAHKLSSLIILMPHHVEPLERLEKLLTKEQLKAWMGKMQKKAVAISLPKGVVEVTHDLQKHLAGLGLTEAIDKNKADLSRMSGKKDLYLASVFHATAFEWDTEGNPFDQDIAGREELRSPKLFYADHPFIFLVRDNQSGSLLFIGRLVRPKGDKMRDEL | no
* Hsp47-HT, P19324 I352F (protein) AEVKKPLEAAAPGTAEKLSSKATTLAERSTGLAFSLYQAMAKDQAVENILLSPLVVASSLGLVSLGGKATTASQAKAVLSAEKLRDEEVHTGLGELLRSLSNSTARNVTWKLGSRLYGPSSVSFADDFVRSSKQHYNCEHSKINFRDKRSALQSINEWASQTTDGKLPEVTKDVERTDGALLVNAMFFKPHWDEKFHHKMVDNRGFMVTRSYTVGVTMMHRTGLYNYYDDEKEKLQMVEMPLAHKLSSLIILMPHHVEPLERLEKLLTKEQLKAWMGKMQKKAVAISLPKGVVEVTHDLQKHLAGLGLTEAIDKNKADLSRMSGKKDLYLASVFHATAFEWDTEGNPFDQDFYGREELRSPKLFYADHPFIFLVRDNQSGSLLFIGRLVRPKGDKMRDEL | no

--- query ---
Given Hsp47-HT, P19324 Y353R (protein) AEVKKPLEAAAPGTAEKLSSKATTLAERSTGLAFSLYQAMAKDQAVENILLSPLVVASSLGLVSLGGKATTASQAKAVLSAEKLRDEEVHTGLGELLRSLSNSTARNVTWKLGSRLYGPSSVSFADDFVRSSKQHYNCEHSKINFRDKRSALQSINEWASQTTDGKLPEVTKDVERTDGALLVNAMFFKPHWDEKFHHKMVDNRGFMVTRSYTVGVTMMHRTGLYNYYDDEKEKLQMVEMPLAHKLSSLIILMPHHVEPLERLEKLLTKEQLKAWMGKMQKKAVAISLPKGVVEVTHDLQKHLAGLGLTEAIDKNKADLSRMSGKKDLYLASVFHATAFEWDTEGNPFDQDIRGREELRSPKLFYADHPFIFLVRDNQSGSLLFIGRLVRPKGDKMRDEL , is recorded percent of parent strictly lower than 80%?
yes

Source listed as paper PMC6827286.
